Data provenance is patent US20030119072A1.

STUDY_TARGET: T1, GST-WWP1.2
T1 construct: Coated on polystyrene plates; also called second WW domain of WWP1; WWP1 WW domain 2; not shown: glutathione S-transferase (GST) fusion partner
T1 sequence (chain, as listed by the source): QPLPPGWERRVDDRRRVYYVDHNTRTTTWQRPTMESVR
MEASUREMENT_DESCRIPTION: TRF (DELFIA) plate assay, GST-WW domain coated at 30 µg/mL, titrated with biotinylated peptide
Where no end group is shown, it is not given here.
ENDPOINT_LABEL: binding result

• GPESPPPPYSRLSP (not fully specified (N-terminus); also: biotin with C6 linker, end not given here, also called Smad 6 peptide) [Smad6 PY motif peptide GPESPPPPYSRLSP] = binds
